biological target: Paired box protein Pax-8 (Homo sapiens, UniProt Q06710); experiment: PAX8 transcriptional activity inhibition in RMG-I – RMG-I cells, luciferase, cherry-pick, dose response (AID 687027); type: functional, cell-based;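 note: luciferase reporter driven by Pax8 target thyroperoxidase promoter measured by SteadyGlo luminescence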
Sequence (Q06710 whole entry): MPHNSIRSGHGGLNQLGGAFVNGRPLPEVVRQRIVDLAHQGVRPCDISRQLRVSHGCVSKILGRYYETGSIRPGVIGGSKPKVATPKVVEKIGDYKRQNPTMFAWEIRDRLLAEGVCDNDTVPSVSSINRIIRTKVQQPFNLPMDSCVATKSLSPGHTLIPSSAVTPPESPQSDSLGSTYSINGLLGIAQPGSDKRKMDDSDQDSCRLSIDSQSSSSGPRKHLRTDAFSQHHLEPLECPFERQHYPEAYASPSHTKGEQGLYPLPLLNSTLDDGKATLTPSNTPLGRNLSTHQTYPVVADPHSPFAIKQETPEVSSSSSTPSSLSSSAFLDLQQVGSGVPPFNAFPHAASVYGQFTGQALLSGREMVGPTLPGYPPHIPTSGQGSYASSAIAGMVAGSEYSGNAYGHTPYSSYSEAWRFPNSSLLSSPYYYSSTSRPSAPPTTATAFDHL
Activity calls are given as the source filed them.
Measured AC50 of individual entries
Measurement label: AC50

* CN1C[C@@H]2[C@H](c3ccccc31)[C@H](CO)N2Cc1ccccc1Cl | 50.5 µM (active)
* C[C@@H]1CCCCO[C@H](CN(C)C(=O)c2ccccc2)[C@@H](C)CN([C@@H](C)CO)C(=O)c2cc(NC(=O)Nc3ccc(C(F)(F)F)cc3)ccc2O1 | 3.72 µM (active)
* C=C1C(=O)[C@]23C[C@H]1CC[C@H]2[C@]1(C)[C@@H](OC(C)=O)CC[C@@](C)(C(=O)O)[C@H]1C[C@@H]3O | 4.07 µM (active)
* COc1ccc(Oc2ccc(/C=C/C(=O)c3cccc(OC)c3)cc2[N+](=O)[O-])cc1 | 14.5 µM (active)
* COc1cccc(N(C(=O)c2ccco2)c2nc(-c3sc(NC(=O)c4ccco4)nc3C)cs2)c1 | 2.1 µM (active)
* CC(C)(C)C(=O)Nc1ccc(NC(=O)c2ccco2)nc1 | 1.26 µM (active)
* COC(=O)C1=C(C)N(Cc2ccc(C(F)(F)F)cc2)C(NCc2ccccc2)=NC1c1cccc(Cl)c1 (centres undefined) | 12.3 µM (active)
* Cc1ccc(S(=O)(=O)Nc2ccc3c(c2)C(=O)N([C@H](C)CO)C[C@@H](C)[C@H](CN(C)Cc2ccc(Cl)c(Cl)c2)OCCCC[C@H](C)O3)cc1 | 6.2 µM (active)
* COc1ccc(CN(C)C[C@H]2Oc3ccc(NC(=O)Nc4ccc5c(c4)OCO5)cc3CC(=O)N([C@H](C)CO)C[C@H]2C)cc1 | 62.3 µM (active)

---

target: Eukaryotic translation initiation factor 4H (Homo sapiens); assay: eIF4H binding inhibition – biochemical, uHTS, fluorescence polarization, translation initiation inhibitor project, primary screen (AID 2012)
Activity calls are given as the source filed them.
Outcomes: active, inactive

* COc1ccc(N(CC(=O)N2CCCCCC2)S(=O)(=O)c2ccccc2[N+](=O)[O-])c(OC)c1 | inactive
* C[n+]1cnn2c1SCC1(COC1)C2 | inactive
* N#Cc1c(-c2ccc(Cl)cc2)cc(-c2cccs2)nc1SCC(=O)O | active
* Oc1ccc(/C=N/N(c2ccccc2)c2ccccc2)c(O)c1O | active

---

Measured IC50 of individual entries
molecular target: Voltage-gated N-type calcium channel alpha-1B subunit/Amyloid beta A4 precursor protein-binding family A member 1 (Homo sapiens, UniProt Q00975+Q02410); type: protein assay
Sequence (Q00975 whole entry): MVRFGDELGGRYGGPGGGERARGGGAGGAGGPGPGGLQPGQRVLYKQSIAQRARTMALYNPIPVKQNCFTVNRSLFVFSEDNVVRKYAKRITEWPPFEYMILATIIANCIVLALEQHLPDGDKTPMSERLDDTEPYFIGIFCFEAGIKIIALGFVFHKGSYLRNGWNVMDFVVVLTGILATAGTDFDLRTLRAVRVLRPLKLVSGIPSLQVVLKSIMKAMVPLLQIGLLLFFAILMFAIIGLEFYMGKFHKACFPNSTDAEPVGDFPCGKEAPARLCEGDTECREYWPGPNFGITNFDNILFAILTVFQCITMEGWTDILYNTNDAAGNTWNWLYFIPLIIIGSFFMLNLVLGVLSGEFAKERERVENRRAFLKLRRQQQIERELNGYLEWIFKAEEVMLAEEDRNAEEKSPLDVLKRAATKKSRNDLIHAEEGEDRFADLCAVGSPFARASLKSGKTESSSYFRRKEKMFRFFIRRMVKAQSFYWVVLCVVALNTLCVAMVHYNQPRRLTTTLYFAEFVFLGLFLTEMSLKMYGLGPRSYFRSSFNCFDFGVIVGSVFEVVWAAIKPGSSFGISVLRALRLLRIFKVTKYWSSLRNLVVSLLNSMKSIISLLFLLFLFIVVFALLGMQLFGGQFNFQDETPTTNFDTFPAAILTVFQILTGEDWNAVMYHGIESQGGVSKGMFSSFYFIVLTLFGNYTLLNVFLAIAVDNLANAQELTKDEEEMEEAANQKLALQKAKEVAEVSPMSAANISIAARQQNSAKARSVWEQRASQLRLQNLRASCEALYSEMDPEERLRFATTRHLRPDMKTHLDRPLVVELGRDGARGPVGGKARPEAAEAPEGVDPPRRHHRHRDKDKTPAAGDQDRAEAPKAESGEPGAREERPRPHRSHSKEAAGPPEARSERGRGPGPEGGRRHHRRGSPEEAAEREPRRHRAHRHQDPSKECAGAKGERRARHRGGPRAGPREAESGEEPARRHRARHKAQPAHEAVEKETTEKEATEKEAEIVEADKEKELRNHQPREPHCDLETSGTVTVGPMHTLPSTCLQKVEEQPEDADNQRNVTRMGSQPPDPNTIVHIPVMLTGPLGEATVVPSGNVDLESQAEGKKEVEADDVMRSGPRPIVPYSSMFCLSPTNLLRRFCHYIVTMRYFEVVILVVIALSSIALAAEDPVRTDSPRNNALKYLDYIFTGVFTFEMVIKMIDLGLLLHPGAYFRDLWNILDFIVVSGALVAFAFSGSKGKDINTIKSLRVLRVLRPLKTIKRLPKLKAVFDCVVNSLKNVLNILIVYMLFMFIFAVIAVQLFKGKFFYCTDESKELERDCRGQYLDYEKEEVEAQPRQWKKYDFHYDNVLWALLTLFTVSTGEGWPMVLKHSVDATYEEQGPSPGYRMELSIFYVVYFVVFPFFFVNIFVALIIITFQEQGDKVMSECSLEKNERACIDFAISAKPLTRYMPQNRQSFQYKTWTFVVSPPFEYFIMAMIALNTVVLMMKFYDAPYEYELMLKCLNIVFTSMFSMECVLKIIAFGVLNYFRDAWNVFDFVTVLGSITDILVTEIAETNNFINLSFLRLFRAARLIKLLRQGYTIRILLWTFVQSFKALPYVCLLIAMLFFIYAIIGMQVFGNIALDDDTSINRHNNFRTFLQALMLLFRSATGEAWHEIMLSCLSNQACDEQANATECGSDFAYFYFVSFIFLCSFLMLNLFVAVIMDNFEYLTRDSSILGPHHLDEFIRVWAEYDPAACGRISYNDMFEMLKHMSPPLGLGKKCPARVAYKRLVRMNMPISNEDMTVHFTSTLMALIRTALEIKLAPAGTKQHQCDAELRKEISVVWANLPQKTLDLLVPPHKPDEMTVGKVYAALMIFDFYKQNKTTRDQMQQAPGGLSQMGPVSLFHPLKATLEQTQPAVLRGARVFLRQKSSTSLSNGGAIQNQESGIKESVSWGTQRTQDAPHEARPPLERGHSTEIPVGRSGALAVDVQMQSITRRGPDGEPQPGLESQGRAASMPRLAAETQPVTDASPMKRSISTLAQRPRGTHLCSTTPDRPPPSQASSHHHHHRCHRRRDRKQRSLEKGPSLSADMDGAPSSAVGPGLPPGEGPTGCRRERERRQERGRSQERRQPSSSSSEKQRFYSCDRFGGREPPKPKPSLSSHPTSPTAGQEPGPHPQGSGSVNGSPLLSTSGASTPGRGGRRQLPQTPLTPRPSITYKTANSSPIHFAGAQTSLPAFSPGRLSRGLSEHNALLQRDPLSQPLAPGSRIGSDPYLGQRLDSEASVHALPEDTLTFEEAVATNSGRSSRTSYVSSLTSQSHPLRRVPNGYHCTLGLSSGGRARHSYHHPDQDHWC
Sequence (Q02410 whole entry): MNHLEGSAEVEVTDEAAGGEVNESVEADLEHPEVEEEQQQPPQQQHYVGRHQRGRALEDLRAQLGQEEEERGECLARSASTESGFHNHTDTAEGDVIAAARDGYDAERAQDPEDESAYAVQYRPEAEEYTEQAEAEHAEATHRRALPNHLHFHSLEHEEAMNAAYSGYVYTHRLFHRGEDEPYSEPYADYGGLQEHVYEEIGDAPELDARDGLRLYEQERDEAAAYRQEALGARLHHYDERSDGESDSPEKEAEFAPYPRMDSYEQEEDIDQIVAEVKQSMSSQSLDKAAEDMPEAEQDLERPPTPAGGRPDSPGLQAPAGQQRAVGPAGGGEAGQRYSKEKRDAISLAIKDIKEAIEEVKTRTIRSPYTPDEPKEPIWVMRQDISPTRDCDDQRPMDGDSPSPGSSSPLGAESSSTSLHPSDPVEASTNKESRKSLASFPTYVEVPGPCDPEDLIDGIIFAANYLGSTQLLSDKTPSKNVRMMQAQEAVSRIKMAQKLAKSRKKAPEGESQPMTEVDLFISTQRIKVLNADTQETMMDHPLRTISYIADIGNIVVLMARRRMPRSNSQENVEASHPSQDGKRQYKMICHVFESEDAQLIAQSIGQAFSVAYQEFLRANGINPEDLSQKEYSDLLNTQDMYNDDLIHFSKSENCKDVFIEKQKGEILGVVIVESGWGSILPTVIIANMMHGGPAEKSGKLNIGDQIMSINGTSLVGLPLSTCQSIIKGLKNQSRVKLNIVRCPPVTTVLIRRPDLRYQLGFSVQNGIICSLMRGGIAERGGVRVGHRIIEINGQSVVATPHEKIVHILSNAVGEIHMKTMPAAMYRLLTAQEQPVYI
The source made the active and inactive calls.
Measurement label: IC50

• O=C(O)CCc1ccc(-c2cccs2)o1 = 21.3 µM (active)
• CC(=O)N(C1=C(Cl)C(=O)c2ccccc2C1=O)c1ccc(C(=O)O)cc1 = 3.35 µM (active)
• Cc1ccc(NC(=O)CN2C(=O)N/C(=C/c3cccn3-c3ccc(C(=O)O)cc3)C2=O)cc1 = 10.5 µM (active)
• Cc1cc(O)c(C=O)c2c1C(=O)Oc1c(CO)c(O)c3c(c1O2)C(O)OC3=O (stereo not drawn) = 14.8 µM (active)
• O=C(N/N=C/c1ccncc1)c1ccc(NC(=O)c2ccc(Cl)cc2)cc1 = > 56.8 µM (not active)
• Cc1cc(C(=O)N/N=C/c2cc(N=Nc3ccccc3)ccc2O)[nH]n1 = 10.9 µM (active)
• N#CC1=C(N)N=C(S)C(C(N)=O)C1c1ccc(Cl)cc1Cl (stereo not drawn) = 13.3 µM (active)
• Cc1cccc(-n2cnc3c(c2=O)c2nc4ccccc4nc2n3Cc2ccco2)c1 = 2.16 µM (active)

---

target: Carboxy-terminal domain RNA polymerase II polypeptide A small phosphatase 1 (Homo sapiens, UniProt Q9GZU7); assay: CTDSP1 inhibitors, concentration-response, biochemical, absorbance readout, ultra-high-throughput screen actives (AID 540297); format: functional
Sequence (Q9GZU7 whole entry, the tested form may be a part): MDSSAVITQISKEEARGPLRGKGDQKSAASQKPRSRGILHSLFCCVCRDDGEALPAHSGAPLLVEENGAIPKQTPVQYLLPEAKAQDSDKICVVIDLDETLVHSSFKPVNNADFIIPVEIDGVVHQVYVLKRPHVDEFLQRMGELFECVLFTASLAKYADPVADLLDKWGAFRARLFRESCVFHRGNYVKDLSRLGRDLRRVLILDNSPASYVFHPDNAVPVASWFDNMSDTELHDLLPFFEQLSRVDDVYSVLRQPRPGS
Calls of active or inactive are those of the source.
Measurement label: IC50

* Cc1cccc(NC(=O)COc2ccc(/C=C\c3nc(O)nc(O)c3[N+](=O)[O-])cc2)c1 | 1.78 µM (active)
* CC1(CC(=O)N/N=C/c2cc([N+](=O)[O-])c(O)cc2O)OCCO1 | 4.41 µM (active)
* Cn1nc(C(=O)Nc2ccc(-n3cnnn3)cc2)c2ccccc2c1=O | 25.7 µM (active)
* O=C(/C=C/c1ccco1)OCC(=O)N1CCCCC1 | 5.75 µM (active)
* O=C(CSc1ccsc1[N+](=O)[O-])Nc1cc(F)ccc1F | 2.76 µM (active)
* O=[N+]([O-])c1ccc([CH+][N-]NC(=S)N[N-][CH+]c2ccc([N+](=O)[O-])cc2)cc1 | 4.17 µM (active)
* Cc1csc2nc(NC(=O)c3ccccc3)sc(=O)c12 | 7.03 µM (active)
* O=C(NNc1ncnc2ccccc12)c1cccc(Cl)c1 | 18.5 µM (active)

---

Measured EC50 of individual entries
biological target: Zinc finger protein mex-5 (Caenorhabditis elegans, UniProt Q9XUB2); assay: potency of MEX-5 RNA-binding blockers – biochemical, C. elegans, fluorescence polarization, dose response (AID 1960)
Sequence (Q9XUB2 whole entry): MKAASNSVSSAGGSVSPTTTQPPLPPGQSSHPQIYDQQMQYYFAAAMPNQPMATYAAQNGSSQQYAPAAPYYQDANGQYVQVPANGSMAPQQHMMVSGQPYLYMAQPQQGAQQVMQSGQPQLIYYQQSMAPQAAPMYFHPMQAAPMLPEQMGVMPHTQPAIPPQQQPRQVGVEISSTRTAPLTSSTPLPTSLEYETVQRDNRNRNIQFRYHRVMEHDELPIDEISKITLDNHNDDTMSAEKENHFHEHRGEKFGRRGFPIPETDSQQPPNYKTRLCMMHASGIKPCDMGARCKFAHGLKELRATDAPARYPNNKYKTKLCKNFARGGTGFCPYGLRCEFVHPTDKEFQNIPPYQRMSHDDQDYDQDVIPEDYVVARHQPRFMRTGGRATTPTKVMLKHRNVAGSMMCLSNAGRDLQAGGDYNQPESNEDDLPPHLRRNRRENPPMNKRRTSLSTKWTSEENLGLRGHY
Active and inactive are the calls of the source.
Measurement label: EC50

• CCOC(=O)C1CCN(C(=O)c2ccc3c(c2)NC(=O)/C(=C\c2ccc(C)cc2)S3)CC1 = 30.8 µM (active)
• CN(C)[C@@H]1C(=O)C(C(N)=O)=C(O)[C@@]2(O)C(O)=C3C(=O)c4c(O)cccc4[C@@](C)(O)C3[C@H](O)C12 (stereo not given in full) = 20.5 µM (active)
• COc1ccc(CC(=O)NNC2=Nc3cccc4cccc2c34)cc1 = > 150 µM (inconclusive)
• O=C(O)C1Nc2c(C(=O)N3CCOCC3)cccc2C2C=CCC12 (stereo not given) = 21.3 µM (inconclusive)
• Cc1c(C(=O)O)cccc1-n1c(C)cc(C=O)c1C = > 300 µM (not active)

---

biological target: UniProt:P10520; assay: viability-normalized secreted streptokinase activity reduction – plasminogen activation absorbance, OD405, dose response (AID 1914); assay type: functional, Streptococcus pyogenes M1 GAS;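 note: secreted streptokinase activity via plasminogen activation per viability signal from cell pellet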
Sequence (P10520 whole entry): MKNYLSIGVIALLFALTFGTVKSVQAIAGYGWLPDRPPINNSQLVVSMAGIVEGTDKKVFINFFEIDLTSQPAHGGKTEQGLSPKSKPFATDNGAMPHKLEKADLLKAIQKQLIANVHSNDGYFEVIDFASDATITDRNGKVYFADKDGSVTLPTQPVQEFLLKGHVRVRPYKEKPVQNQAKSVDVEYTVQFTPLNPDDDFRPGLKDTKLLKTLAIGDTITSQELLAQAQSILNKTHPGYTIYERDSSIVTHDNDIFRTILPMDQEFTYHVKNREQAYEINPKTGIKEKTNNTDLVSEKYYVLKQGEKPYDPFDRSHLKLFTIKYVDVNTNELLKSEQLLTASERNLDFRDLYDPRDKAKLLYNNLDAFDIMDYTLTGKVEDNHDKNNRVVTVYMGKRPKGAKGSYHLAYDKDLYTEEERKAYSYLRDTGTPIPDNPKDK
Calls of active or inactive are those of the source.
Measured EC50 of individual entries
Measurement label: EC50

• COc1ccc(-c2nnc(SC(C(=O)c3c[nH]c4ccccc34)c3ccccc3)n2N)cc1OC (stereo unspecified) = > 150 µM (not active)
• Cn1c(O)c(N=NC(=O)c2cc(-c3cccs3)nc3ccccc23)c2ccccc21 = > 150 µM (not active)
• COc1ccc(C(=O)c2c(C(F)(F)F)oc3c2C(=O)c2ccccc2C3=O)cc1OC = > 150 µM (not active)
• c1ccc(-c2csc3ncnc(N4CCc5ccccc5C4)c23)cc1 = 4.83 µM (active)
• C/C(=N\Nc1cc(N2CCCCC2)nc(C)n1)c1ccc(Br)cc1 = 46.7 µM (inconclusive)
• CCC(C)c1ccc(C2C3=C(O)c4ccccc4C3=Nc3nc(N)nc(O)c32)cc1 (stereo unspecified) = > 50 µM (not active)
• O=C(CC1S/C(=N\c2ccccc2)N(CCc2c[nH]c3ccccc23)C1=O)Nc1ccccc1F (stereo unspecified) = 14 µM (inconclusive)
• CC(C)C[C@H](NC(=O)c1[nH]cnc1C(=O)NCc1ccccc1)C(=O)OCc1ccccc1 = > 150 µM (not active)
• Cc1ccc(-c2nn(-c3ccccc3)cc2/C=N/NC(=O)CSc2nnc(C)n2-c2ccccc2)cc1 = 65.8 µM (active)
• O=C(/C=C/c1ccco1)Nc1nc(-c2ccccn2)cs1 = > 150 µM (not active)
• Oc1c(C(Nc2ccccn2)c2ccccn2)ccc2cccnc12 (stereo unspecified) = > 150 µM (not active)
• COC(=O)c1ccc(CSc2nnc(S)s2)o1 = 5.61 µM (active)
• Cc1ccc(-n2c(O)cc(=O)nc2SCC(=O)Nc2ccc3c4c(cccc24)CC3)cc1 = > 150 µM (not active)
• Cc1ccc2c(O)nc(Nc3nc(C)cc(-c4ccccc4)n3)nc2c1 = > 150 µM (not active)
• Cn1cc(C(=O)c2ccc(Cl)cc2Cl)cc1C(=O)NN=C(N)COc1cccc(C(F)(F)F)c1 = 133 µM (active)
• FC(F)(F)c1cccc(NC(=S)N2CCCC2)c1 = > 150 µM (not active)

---

test: reduction of Shn3 3'UTR-driven luciferase in osteoblasts – cell-based, Clone20 osteoblasts, firefly luciferase, cherry-picked, dose response (AID 624132); type: functional;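 note: firefly luciferase luminescence from reporter carrying the Shn3 3'UTR in osteoblasts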
The source made the active and inactive calls.
Measured AC50 of individual entries
Measurement label: AC50

- Oc1c(C(Nc2ccccn2)c2ccccn2)ccc2cccnc12 (stereo not given): 4.36 µM (active)
- CCN(CC)S(=O)(=O)c1cc(NC(=O)CNc2cccc(S(=O)(=O)N3CCCC3)c2)ccc1C: 0.648 µM (active)
- COCc1c(C(=O)Nc2cccc(S(=O)(=O)N3CCCCC3)c2)oc2ccccc12: 9.63 µM (active)
- O=C(Nc1ccc([N+](=O)[O-])cc1)Nc1ccc(OC(F)F)c(Cl)c1: 3.59 µM (active)
- COc1ccc(OCc2cccc(C(=O)O)c2)cc1: 1.39 µM (active)

Source of measurements: ChEMBL document CHEMBL1201862
